# subject of test: SpPex13
# procedure details: SPOT peptide array binding signal intensity (averaged, normalized) (arbitrary units (background-subtracted, floor 0; scale differs between SH3 domains)); higher = stronger binding of the SH3 domain to the peptide
Listing of recorded SPOT peptide array binding signal intensity by entry.

# count of solved cases: 2
[[record]]
binder = "VAPPPLPNRQLPNLD"
recorded_value = "≤ 0"

[[record]]
binder = "VQKRKLPLPGSIASA"
recorded_value = "≤ 0"


Now look at this one.
Prompt: Query SPOT peptide array binding signal intensity for "VDFTLPPPPPPPGLD"
Completion: ≤ 0
